Molecular target: ENAH EVH1 (Homo sapiens)
Assay: Fluorescence titration
Assay type: binding
Where a SMILES comes first, the peptide text is derived from it.
measured_parameter: pKd
Kindly note that pKd refers to -log10 of the concentration in mol/L and answer with the value alone.

Prompt: # input compound: CCOC(=O)[C@@H]1CCCN1C(=O)[C@@H]1CCCN1C(=O)[C@@H]1CCCN1C(=O)[C@@H]1CCCN1C(=O)[C@H](Cc1ccccc1)NC(C)=O [wt1, Ac–FPPPP–OEt] (Ac-FPPPP-OEt) ; wanted: its pKd
Completion: 3.82
